- procedure details: Cytotoxicity against human HeLa cells assessed as reduction in cell viability after 48 hrs by MTT assay
- Format: functional, cell-based
measurement label: pIC50
Lab note: report pIC50 as minus log10 of the concentration in molar units, number only.

Here are 3 compounds together with their reported answers.
{"columns": ["cpd smiles", "measured value"],
 "data": [
  ["CO[C@](C)(CCC=C(C)C)[C@H]1CC[C@]2(C)[C@@H]1[C@H](O)C[C@@H]1[C@@]3(C)CC[C@H](O)C(C)(C)[C@@H]3CC[C@]12C", 5.96],
  ["COC(=O)OC(C)(C)CCC[C@@](C)(O)[C@H]1CC[C@]2(C)[C@@H]1[C@H](O)C[C@@H]1[C@@]3(C)CC[C@H](O)C(C)(C)[C@@H]3CC[C@]12C", 4.57],
  ["COC(=O)O[C@H]1CC[C@]2(C)[C@H]3C[C@@H](O)[C@@H]4[C@@H]([C@@](C)(CCCC(C)(C)O)OC)CC[C@@]4(C)[C@]3(C)CC[C@H]2C1(C)C", 5.15]
]}

stdin: For the compound `COC(=O)O[C@H]1CC[C@]2(C)[C@H]3C[C@@H](O)[C@@H]4[C@@H]([C@](C)(O)CCC=C(C)C)CC[C@@]4(C)[C@]3(C)CC[C@H]2C1(C)C` , give its measured pIC50 value.
stdout: 4.98

stdin: For the compound `COC(=O)O[C@H]1CC[C@]2(C)[C@H]3C[C@@H](O)[C@@H]4[C@@H]([C@](C)(O)CCCC(C)(C)O)CC[C@@]4(C)[C@]3(C)CC[C@H]2C1(C)C` , give its reported pIC50.
stdout: 4.22

Ref: ChEMBL document CHEMBL3877242
